- system tested: Human immunodeficiency virus type 1 reverse transcriptase (Human immunodeficiency virus 1, UniProt Q72547)
pIC50: −log10 of the molar value.
Classification field: enter condition met for pIC50 values not below 7, condition not met for values below it.

Field: example entries. Status: answers known.
chemical structure: CCc1csc(NC(=S)NCCc2c(F)cccc2F)n1
qualitative label: condition met
//
chemical structure: Fc1cccc(F)c1CCNC(=S)Nc1ccc(Br)cn1
qualitative label: condition met
//
chemical structure: CC(C)=CCN1Cc2cc(Cl)cc3[nH]c(=S)n(c23)C[C@@H]1C
qualitative label: condition not met
//
chemical structure: Cn1cccc1CC/N=C(\S)Nc1nccs1
qualitative label: condition not met
//
chemical structure: S=C(NCCc1ccccn1)Nc1nccs1
qualitative label: condition not met
//
chemical structure: Oc1ccccc1CCNC(=S)Nc1nccs1
qualitative label: condition not met

Req: Would you say CC(C)c1csc(NC(=S)NCCc2ccccc2)n1 shows pIC50 at minimum 7?
Resp: condition not met

Req: Would you say S=C(NCCc1ccccc1)Nc1ncccc1Br shows pIC50 at minimum 7?
Resp: condition not met

----------
- system tested: Human immunodeficiency virus type 1 reverse transcriptase (Human immunodeficiency virus 1) (UniProt Q72547)
- assay explanation: Concentration which reduced the cytopathic effect of HIV-1 in MT-4 infected cells
- Type: functional, cell-based
Catalogue of compounds with associated ED50
The reply should contain only the number, in nM.

Some solved cases for reference:
chemical structure: S=C(NCCc1ccccn1)Nc1ccc(Br)cn1
attribute measured: ED50
reading unit: nM
reported result: 20
//
chemical structure: S=C(NCCc1ccccn1)Nc1nccs1
attribute measured: ED50
reading unit: nM
reported result: 1300
//
chemical structure: S=C(NCCc1ccccc1Cl)Nc1nccs1
attribute measured: ED50
reading unit: nM
reported result: 400
//
chemical structure: CCOc1cccc(F)c1CCNC(=S)Nc1nccs1
attribute measured: ED50
reading unit: nM
reported result: 200
//
chemical structure: Cc1ccc(NC(=S)NCCc2ccccn2)nc1
attribute measured: ED50
reading unit: nM
reported result: 300

We next turn to a different compound, shown below.
Req: What does the data say about its ED50? Entry: CCCOc1cccc(CCNC(=S)Nc2nccs2)c1
Resp: 2200

----------
- system tested: Human immunodeficiency virus type 1 reverse transcriptase (Human immunodeficiency virus 1, UniProt Q72547)
Catalogue of compounds with associated pIC50
Remember, pIC50 is on a log scale: it is -log10 of the molar concentration.

Some solved cases for reference:
chemical structure: CCCOc1cccc(CCNC(=S)Nc2nccs2)c1
reported result: 6.70
--
chemical structure: CCOC(=O)c1csc(NC(=S)NCCc2ccccc2)n1
reported result: 6.70

Req: What does the data say about its pIC50? Entry: Fc1ccc(CCNC(=S)Nc2nccs2)cc1
Resp: 6.00

Req: What does the data say about its pIC50? Entry: CCOc1cccc(F)c1CCNC(=S)Nc1ccc(C)cn1
Resp: 8.35

Req: What does the data say about its pIC50? Entry: COc1cccc(F)c1CCNC(=S)Nc1nccs1
Resp: 8.00

Req: What does the data say about its pIC50? Entry: COc1ccc(OC)c(CCNC(=S)Nc2nccs2)c1
Resp: 6.70

----------
- system tested: Human immunodeficiency virus type 1 reverse transcriptase (Human immunodeficiency virus 1) (UniProt Q72547)
- assay explanation: Concentration which reduced the cytopathic effect of HIV-1 in MT-4 infected cells
- Format: functional, cell-based
Labelling: ED50 reported below 200 nM becomes t; at or above becomes f.

Field: example entries. Status: answers known.
chemical structure: FC(F)(F)c1csc(NC(=S)NCCc2ccccc2)n1
qualitative label: f
//
chemical structure: S=C(NCCc1ccco1)Nc1nccs1
qualitative label: f
//
chemical structure: Fc1cccc(Cl)c1CCNC(=S)Nc1nccs1
qualitative label: t
//
chemical structure: Cc1ccc(NC(=S)NCCc2ccccc2)nc1
qualitative label: t
//
chemical structure: S=C(NCCc1ccccc1)Nc1nc2ccccc2s1
qualitative label: f

Req: Hello, I'm reviewing records and need to know if ED50 of COc1cccc(OC)c1CCNC(=S)Nc1nccs1 is below 200 nM. Could you check?
Resp: t

Req: Hello, I'm reviewing records and need to know if ED50 of Cc1csc(NC(=S)NCCc2ccccc2)n1 is below 200 nM. Could you check?
Resp: f

Req: Hello, I'm reviewing records and need to know if ED50 of O=C(O)c1csc(/N=C(\S)NCCc2ccccc2)n1 is below 200 nM. Could you check?
Resp: f

----------
- assay explanation: Concentration which reduced the viability of the uninfected MT-4 cells to 50% compared to untreated control cells
- assay context: MT4
Labelling: CD50 reported below 80 µM becomes fulfilled; at or above becomes not fulfilled.

chemical structure: COc1ccc(OC)c(CCNC(=S)Nc2nccs2)c1
qualitative label: not fulfilled

chemical structure: S=C(NCCc1cccc(Oc2ccccc2)c1)Nc1nccs1
qualitative label: fulfilled

chemical structure: S=C(NCCc1ccccc1)Nc1ncc(Cl)s1
qualitative label: fulfilled

chemical structure: CCOC(=O)c1csc(NC(=S)NCCc2ccccc2)n1
qualitative label: fulfilled

chemical structure: Fc1cccc(F)c1CCNC(=S)Nc1nccs1
qualitative label: fulfilled

Req: Hello, I'm reviewing records and need to know if CD50 of Cc1ccc(NC(=S)NCCc2c(F)cccc2F)nc1 is below 80 µM. Could you check?
Resp: not fulfilled

Req: Hello, I'm reviewing records and need to know if CD50 of S=C(NCCc1ccccn1)Nc1nccs1 is below 80 µM. Could you check?
Resp: fulfilled

Req: Hello, I'm reviewing records and need to know if CD50 of S=C(NCCc1cccnc1)Nc1nccs1 is below 80 µM. Could you check?
Resp: not fulfilled

Req: Hello, I'm reviewing records and need to know if CD50 of S=C(NCCc1ccccc1)Nc1ncccc1Br is below 80 µM. Could you check?
Resp: not fulfilled

Req: Hello, I'm reviewing records and need to know if CD50 of CN(CCc1ccccc1)/C(S)=N\c1nccs1 is below 80 µM. Could you check?
Resp: fulfilled

Req: Hello, I'm reviewing records and need to know if CD50 of CCc1csc(NC(=S)NCCc2ccccc2)n1 is below 80 µM. Could you check?
Resp: not fulfilled

Req: Hello, I'm reviewing records and need to know if CD50 of Cc1ccc(NC(=S)NCCc2ccccn2)nc1 is below 80 µM. Could you check?
Resp: fulfilled

Req: Hello, I'm reviewing records and need to know if CD50 of COc1cccc(F)c1CCNC(=S)Nc1nccs1 is below 80 µM. Could you check?
Resp: fulfilled

----------
- assay explanation: Concentration which reduced the viability of the uninfected MT-4 cells to 50% compared to untreated control cells
- assay context: MT4
attribute measured: CD50

molecule: CN(/C(S)=N/CCc1ccccc1)c1nccs1
CD50: 65 µM

molecule: CCCc1csc(NC(=S)NCCc2ccccc2)n1
CD50: > 330 µM

molecule: Fc1ccccc1CCNC(=S)Nc1nccs1
CD50: 75 µM

molecule: COc1ccc(Br)cc1CCNC(=S)Nc1nccs1
CD50: 94 µM

molecule: CCOc1cccc(F)c1CCNC(=S)Nc1ccc(Br)cn1
CD50: 50 µM

Req: What does the data say about its CD50? Entry: CC(C/N=C(\S)Nc1nccs1)c1ccccc1 (configuration not stated)
Resp: 108 µM

Req: What does the data say about its CD50? Entry: Cc1csc(NC(=S)NCCc2ccccc2)n1
Resp: > 360 µM

----------
Catalogue of molecules with associated IC50
- system tested: Human immunodeficiency virus type 1 reverse transcriptase (Human immunodeficiency virus 1, UniProt Q72547)
The reply should contain only the number, in µM.

Some solved cases for reference:
molecule: Cc1csc(NC(=S)NCCc2ccccc2)n1
IC50 (µM): 0.1

molecule: CN(/C(S)=N/CCc1ccccc1)c1nccs1
IC50 (µM): 1.5

molecule: S=C(NCCc1ccccc1Cl)Nc1nccs1
IC50 (µM): 0.6

molecule: COc1ccccc1CCNC(=S)Nc1nccs1
IC50 (µM): 0.04

molecule: S=C(NCCc1ccccc1)Nc1nccs1
IC50 (µM): 0.9

Req: What does the data say about its IC50? Entry: Cc1ccc(NC(=S)NCCc2c(F)cccc2F)nc1
Resp: 0.003

Req: What does the data say about its IC50? Entry: COc1cccc(OC)c1CCNC(=S)Nc1nccs1
Resp: 0.09

----------
- assay explanation: Concentration which reduced the viability of the uninfected MT-4 cells to 50% compared to untreated control cells
- assay context: MT4
attribute measured: CD50 (µM)
The reply should contain only the number, in µM.

Some solved cases for reference:
chemical structure: COc1cccc(CCNC(=S)Nc2nccs2)c1
reported result: 143
--
chemical structure: CC(C)Oc1cccc(CCNC(=S)Nc2nccs2)c1
reported result: 16
--
chemical structure: O=[N+]([O-])c1ccccc1CCNC(=S)Nc1nccs1
reported result: 123
--
chemical structure: COc1ccccc1CCNC(=S)Nc1nccs1
reported result: 102

We next turn to a different compound, shown below.
Req: What does the data say about its CD50? Entry: CCOc1cccc(F)c1CCNC(=S)Nc1ccc(C)cn1
Resp: 60
